The values you see were collected from paper PMC3006138.

Parameter: half-life. Scope: all listed entries.
- EXPERIMENTAL PROTOCOL: Dog single-dose IV and oral pharmacokinetics
- Format: in vivo
- EXPERIMENTAL PARAMETERS: male, Beagle, dog, plasma; fexinidazole 1 mg/kg IV; read-out: t1/2,z (converted)
Response body: numeric value in min, unit text excluded.

1. Cn1c([N+](=O)[O-])cnc1COc1ccc([S+](C)[O-])cc1 (centres unmarked) [Fexinidazole sulfoxide]    69.6

Asked: Suppose we examine the molecule CSc1ccc(OCc2ncc([N+](=O)[O-])n2C)cc1 ; what half-life value has been reported?
Given back: 24.4

====

- EXPERIMENTAL PROTOCOL: Rat 28-day toxicokinetics
- Format: in vivo
- EXPERIMENTAL PARAMETERS: Sprague-Dawley (Crl:CD (SD)IGS BR), plasma, po, 50 mg/kg/day, 50 mg/kg/day po, day 1
Attribute: Cmax
Number in ng/mL, nothing else.

Examples from the recorded data:
1) Cn1c([N+](=O)[O-])cnc1COc1ccc(S(C)(=O)=O)cc1    2920
2) CSc1ccc(OCc2ncc([N+](=O)[O-])n2C)cc1    90

Could you now consider this next compound?
Asked: Value lookup for Cmax; key = Cn1c([N+](=O)[O-])cnc1COc1ccc([S+](C)[O-])cc1 (stereo not drawn) [Fexinidazole sulfoxide]
Given back: 2700

====

- EXPERIMENTAL PROTOCOL: in vitro
- EXPERIMENTAL PARAMETERS: human, Caco-2, pH 7.4, Percent Recovery B→A
PROPERTY NAME: recovery at 2 h, 5 µM
Express your answer as a number followed by its unit.

Asked: Any idea what recovery at 2 h, 5 µM was measured for CSc1ccc(OCc2ncc([N+](=O)[O-])n2C)cc1 ?
Given back: 81%

====

- EXPERIMENTAL PROTOCOL: Mouse single-dose plasma pharmacokinetics
- Format: in vivo
- EXPERIMENTAL PARAMETERS: female, NMRI, mouse, plasma, iv, 1 mg/kg, plasma, fexinidazole 1 mg/kg iv; read-out: AUC0-24
PROPERTY NAME: AUC(0-t) (ng·h/mL)
Use ng·h/mL as the unit, but write only the number.

1. Cn1c([N+](=O)[O-])cnc1COc1ccc([S+](C)[O-])cc1 (stereo not drawn) [Fexinidazole sulfoxide]    1590
2. Cn1c([N+](=O)[O-])cnc1COc1ccc(S(C)(=O)=O)cc1 [Fexinidazole sulfone]    7990

Asked: Quick one: AUC(0-t) for CSc1ccc(OCc2ncc([N+](=O)[O-])n2C)cc1 [Fexinidazole] ?
Given back: 41

====

- EXPERIMENTAL PROTOCOL: Dog single-dose IV and oral pharmacokinetics
- Format: in vivo
- EXPERIMENTAL PARAMETERS: male, Beagle, dog, plasma; fexinidazole 10 mg/kg oral
PROPERTY NAME: AUC(0-inf)
Answer shape: numeric part, then the unit.

1. CSc1ccc(OCc2ncc([N+](=O)[O-])n2C)cc1 [Fexinidazole]    85.3 ng·h/mL

Continue with the next compound.
Asked: Value lookup for AUC(0-inf); key = Cn1c([N+](=O)[O-])cnc1COc1ccc([S+](C)[O-])cc1 (centres unmarked) [Fexinidazole sulfoxide]
Given back: 8780 ng·h/mL

====

# maps each entry to its Tmax
- EXPERIMENTAL PROTOCOL: Rat 28-day toxicokinetics
- Type: in vivo
- EXPERIMENTAL PARAMETERS: Sprague-Dawley (Crl:CD (SD)IGS BR), plasma, po, 50 mg/kg/day, 50 mg/kg/day po, day 1
- Procedure: In the rat repeated-dose toxicokinetic study, fexinidazole was administered orally by gavage once a day for 28 consecutive days to ten or fifteen Crl:CD (SD)IGS BR rats/sex/group at doses of 50, 200, or 800 mg/kg/day. […] Systemic exposure to fexinidazole and its sulfoxide and sulfone metabolites was evaluated in three additional animals/sex/group. […] ULOQ Upper limit of quantification […] 24 hours post dosing was calculated and denoted AUC0-24. […]
Expressed in h, but write only the number.

// worked examples, Tmax included
1) Cn1c([N+](=O)[O-])cnc1COc1ccc([S+](C)[O-])cc1 (stereo not drawn) [Fexinidazole sulfoxide]    2.5
2) Cn1c([N+](=O)[O-])cnc1COc1ccc(S(C)(=O)=O)cc1    7.33

Asked: Fill in the blank: the reported Tmax of CSc1ccc(OCc2ncc([N+](=O)[O-])n2C)cc1 is ____.
Given back: 1.42
